Origin of the recorded values: ChEMBL document CHEMBL4808148

# inhibition listing for each entry below
Target: Protein deacetylase HDAC6 (Homo sapiens) (UniProt Q9UBN7)
Sequence (whole entry): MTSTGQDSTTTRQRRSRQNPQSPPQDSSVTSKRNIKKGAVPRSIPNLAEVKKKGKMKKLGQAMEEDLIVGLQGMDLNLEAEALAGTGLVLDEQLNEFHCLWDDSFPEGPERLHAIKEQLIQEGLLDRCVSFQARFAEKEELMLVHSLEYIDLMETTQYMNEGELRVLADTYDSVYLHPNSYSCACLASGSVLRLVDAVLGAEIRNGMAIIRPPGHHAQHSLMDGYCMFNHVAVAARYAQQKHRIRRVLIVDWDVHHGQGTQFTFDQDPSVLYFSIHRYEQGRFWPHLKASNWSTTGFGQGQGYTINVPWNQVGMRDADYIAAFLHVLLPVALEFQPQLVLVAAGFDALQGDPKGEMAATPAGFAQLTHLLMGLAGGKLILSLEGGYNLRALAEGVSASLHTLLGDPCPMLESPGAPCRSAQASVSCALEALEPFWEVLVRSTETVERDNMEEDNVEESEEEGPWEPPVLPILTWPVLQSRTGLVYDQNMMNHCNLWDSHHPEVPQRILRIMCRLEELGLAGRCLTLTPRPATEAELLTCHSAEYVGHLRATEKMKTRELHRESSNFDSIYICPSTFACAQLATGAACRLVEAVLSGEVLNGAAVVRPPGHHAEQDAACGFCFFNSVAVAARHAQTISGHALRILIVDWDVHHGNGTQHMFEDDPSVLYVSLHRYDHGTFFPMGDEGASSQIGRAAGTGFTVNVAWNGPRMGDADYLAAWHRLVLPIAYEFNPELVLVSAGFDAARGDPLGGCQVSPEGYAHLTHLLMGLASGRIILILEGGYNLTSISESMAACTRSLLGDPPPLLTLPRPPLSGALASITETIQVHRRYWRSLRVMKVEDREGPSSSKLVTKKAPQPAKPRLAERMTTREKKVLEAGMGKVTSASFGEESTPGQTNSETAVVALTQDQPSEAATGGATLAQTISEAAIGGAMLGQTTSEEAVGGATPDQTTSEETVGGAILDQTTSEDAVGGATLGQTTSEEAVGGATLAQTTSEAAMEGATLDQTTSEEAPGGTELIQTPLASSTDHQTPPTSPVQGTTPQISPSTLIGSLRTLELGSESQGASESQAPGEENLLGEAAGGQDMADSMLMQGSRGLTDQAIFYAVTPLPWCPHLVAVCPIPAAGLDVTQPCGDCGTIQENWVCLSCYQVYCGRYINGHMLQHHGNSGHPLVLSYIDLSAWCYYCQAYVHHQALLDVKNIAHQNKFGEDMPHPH
Conditions: at 10 µM
The campaign covered roughly 5,600 compounds. About 390 (7%) showed an effect of 50% or more. The sample holds strong results, similar compounds and a random draw of the others, so the mix is not that of the screen.
property name: inhibition (%)

[
  {
    "compound": "Cc1ccc(NCCCc2ccccc2)c(N)c1",
    "recorded result": 78.2
  },
  {
    "compound": "Nc1c(CC(=O)O)cccc1C(=O)c1ccccc1",
    "recorded result": 0.48
  },
  {
    "compound": "CN(C)CCN1C(=O)c2cccc3cc(NC(N)=O)cc(c23)C1=O",
    "recorded result": -8.72
  },
  {
    "compound": "CCOc1nc2c(N)ncnc2n1CC",
    "recorded result": 7.36
  },
  {
    "compound": "CS(=O)(=O)c1ccc(Cn2c3c(c4cc(F)cc(F)c42)CCCC3CC(=O)O)cc1 (configuration not stated)",
    "recorded result": -7.09
  },
  {
    "compound": "Cc1c(C(=O)Nc2ccc(N3CCC(N4CCOCC4)CC3)c(C#N)c2)cnn1-c1ccc(Cl)cc1",
    "recorded result": 9.57
  },
  {
    "compound": "Cc1ccc(C)c(C(O)CNC(C)C)c1 (configuration not stated)",
    "recorded result": 7.8
  }
]

====

Molecular target: Protein deacetylase HDAC6 (Homo sapiens) (UniProt Q9UBN7)
Conditions: at 10 µM
The campaign covered roughly 5,600 compounds. About 390 (7%) showed an effect of 50% or more. The entries come from a sample that favours strong results as a whole.
# inhibition listing for each entry below

[
  {
    "molecule": "CC(=O)O[C@]1(C(C)=O)CC[C@H]2[C@@H]3C=CC4=CC(=O)CC[C@]4(C)[C@H]3CC[C@@]21C",
    "inhibition, %": 31.5
  },
  {
    "molecule": "Oc1ccc2ccccc2c1",
    "inhibition, %": 57.1
  },
  {
    "molecule": "CC(CN(C)C)CN1c2ccccc2Sc2ccc(C#N)cc21 (stereo not drawn)",
    "inhibition, %": 7.25
  },
  {
    "molecule": "O=C(COc1cccc2c(=O)[nH]ccc12)c1ccccc1",
    "inhibition, %": 65.9
  },
  {
    "molecule": "CC(C)(C)C(=O)NCCCC(=O)O",
    "inhibition, %": 0.18
  },
  {
    "molecule": "c1ccc(OCc2ccc(CCCN3CCOCC3)cc2)cc1",
    "inhibition, %": 45
  },
  {
    "molecule": "N#CCC(=O)c1ccccc1",
    "inhibition, %": 19.1
  },
  {
    "molecule": "Oc1ccccc1",
    "inhibition, %": 7.92
  }
]

====

Biological target: Protein deacetylase HDAC6 (Homo sapiens) (UniProt Q9UBN7)
Settings: at 10 µM
Among all 5,600 compounds or so, about 390 (7%) showed an effect of 50% or more. The sample holds strong results, similar compounds and a random draw of the others, so the mix is not that of the screen.
property name: inhibition (%)

[
  {
    "compound": "C[C@@H]1CN(CCCn2c3ccccc3c3ccccc32)C[C@H](C)N1",
    "recorded result": 1.8
  },
  {
    "compound": "CN1CC[C@@H](NC(=O)Nc2ccc(C#N)cc2)C[C@@H]1c1nc2ccccc2[nH]1",
    "recorded result": -9.46
  },
  {
    "compound": "c1ccc(CCNc2nc(-c3ccccc3)cs2)cc1",
    "recorded result": 79.1
  },
  {
    "compound": "COc1ccc(Nc2ccn(-c3ccccc3)n2)cc1",
    "recorded result": 101
  },
  {
    "compound": "COc1ccc(N(C(=O)Oc2c(C)cccc2C)c2ccnc(Nc3ccc(N4CCN(C)CC4)cc3)n2)c(OC)c1",
    "recorded result": 102
  },
  {
    "compound": "CCN1CCCC(OC(=O)C(c2ccccc2)c2ccccc2)C1 (stereo not drawn)",
    "recorded result": -1.02
  },
  {
    "compound": "CC(CNC1CCCCC1)OC(=O)c1ccccc1 (stereo not drawn)",
    "recorded result": 34.8
  },
  {
    "compound": "O=C(O)[C@@H](c1ccc(OCc2ccc3ccccc3n2)cc1)C1CCCC1",
    "recorded result": 93.6
  }
]

====

# inhibition listing for each entry below
Biological target: Protein deacetylase HDAC6 (Homo sapiens)
Conditions: at 10 µM
The campaign covered roughly 5,600 compounds. About 390 (7%) showed an effect of 50% or more. Only a selection was taken, and strong results are over-represented in it overall.
property name: inhibition (%)

[
  {
    "compound": "O=C1CCC(c2ccccc2)(C2CCN(Cc3ccc(I)cc3)CC2)C(=O)N1 (stereo not given)",
    "recorded result": -1.98
  },
  {
    "compound": "Nc1nc(OCc2ccccc2)c2nc[nH]c2n1",
    "recorded result": 68.9
  },
  {
    "compound": "CCCCCN(CCCOC)C(=O)[C@@H](CCC(=O)O)NC(=O)c1ccc(Cl)c(Cl)c1",
    "recorded result": 9.58
  },
  {
    "compound": "O/N=C/c1cc[n+](COC[n+]2ccc(/C=N/O)cc2)cc1",
    "recorded result": -4.53
  },
  {
    "compound": "O=C(O)Cc1ccc(OCc2ccccc2)c(Cl)c1",
    "recorded result": -0.75
  },
  {
    "compound": "CN(CCOP(=O)(O)O)C(=N)N",
    "recorded result": 20.7
  },
  {
    "compound": "Cc1c[nH]c2ncnc(N3CCC(CN)(C(=O)Nc4cccc(OC(=O)N(C)C)c4)CC3)c12",
    "recorded result": 25.2
  },
  {
    "compound": "Fc1ccccc1CNCc1ccc(-c2ccnc3[nH]ccc23)cc1",
    "recorded result": 44.7
  },
  {
    "compound": "c1ccc(CNc2ncnc3[nH]cnc23)cc1",
    "recorded result": 3.46
  },
  {
    "compound": "Cc1cc(NC(=O)C(c2ccccc2)N2CCCc3ccccc32)no1 (stereo not given)",
    "recorded result": 6.26
  },
  {
    "compound": "CC(=O)Nc1ccc(Cc2ccc(NC(C)=O)cc2)cc1",
    "recorded result": 37.1
  },
  {
    "compound": "Cc1ccccc1OCC(O)CNCCOc1ccc(C(N)=O)cc1 (stereo not given)",
    "recorded result": 0.61
  },
  {
    "compound": "CC(C)c1cc(C(C)C)c(-c2csc(N(CCN(C)C)Cc3cccnc3)n2)c(C(C)C)c1",
    "recorded result": 1.94
  },
  {
    "compound": "COc1cc([C@@H]2c3cc4c(cc3[C@@H](O[C@@H]3O[C@@H]5CO[C@@H](C)O[C@H]5[C@H](O)[C@H]3O)[C@H]3COC(=O)[C@H]23)OCO4)cc(OC)c1OP(=O)(O)O",
    "recorded result": 5.48
  },
  {
    "compound": "C[N+](C)(CF)CCO",
    "recorded result": 0.62
  }
]
